Measured values drawn from PubChem BioAssay (NCI) for this set.

GI50 values, listed per item
# Test system: OVCAR-5 ovarian
# ASSAY_NOTES: NCI tumour cell line growth inhibition, 48 h

Worked cases, GI50 given:
{"columns": ["MOLECULE", "GI50"],
 "data": [
  ["O=C(c1ccccc1)c1c2n(c3c1cc(O)c1ccccc13)CCN2", "0.72 µM"],
  ["O=C(Nc1nc(-c2ccccc2Cl)cs1)c1cc(-c2ccc(Cl)cc2)nc2ccc(Cl)cc12", "23.1 µM"],
  ["Cn1cc(-c2ccc3nnc(C(F)(F)c4ccc5ncccc5c4)n3n2)cn1", "71.9 µM"]
]}

Query: Using the record for Nc1nc(Cl)nc2c1ncn2C1OC(CO)C(O)C1O (stereo not given) , report its GI50.
Reply: 86.9 µM

Query: Entry `CC/C(=C(/CC)c1ccc(O)cc1)c1ccc(O)cc1` please
Reply: 14.1 µM
